- PROTOCOL DETAILS: Selectivity index is the ratio of CC50 to EC50
- Assay type: functional
VALUE KIND: SI

Sample records with SI:
1) Cc1cn([C@H]2C[C@H](F)[C@@H](COCP(=O)(O)OP(=O)(O)OP(=O)(O)O)O2)c(=O)[nH]c1=O (stereo in doubt; 30): > 5
2) O=c1ccn([C@H]2CC[C@@H](COCP(=O)(O)O)O2)c(=O)[nH]1: > 5
3) Cc1cn([C@H]2CC[C@@H](COCP(=O)(O)O)O2)c(=O)[nH]c1=O: > 1
4) Nc1ccn([C@H]2CC[C@@H](COCP(=O)(O)O)O2)c(=O)n1: > 1
5) Cc1cn([C@H]2C[C@H](N)[C@@H](COCP(=O)(O)O)O2)c(=O)[nH]c1=O: > 1

Please turn your attention to the following entry.
Ask | I have this compound here, CO[C@H]1C[C@H](n2cc(C)c(=O)[nH]c2=O)O[C@@H]1COCP(=O)(O)O , and I need its recorded SI.
Reply | > 1
